Experiment: Mouse pharmacokinetic studies
Format: in vivo
Details: mouse, ip; male C57BL/6 mice, intraperitoneal 5 mg/kg; from AUC values of brain and plasma; read-out: Brain/plasma ratio
Procedure: Male C57BL/6 mice were fasted overnight. Compounds were dissolved in dimethyl acetamide at 10 times the final concentration, then Solutol HS 15 (BASF) was added to a final concentration of 10%. […] The plasma and brain homogenate were extracted with acetonitrile and the level of compound was analyzed by LC/MS/MS. The level of compound in plasma was calculated from a standard curve in rat plasma and the level in brain was calculated from a standard curve in brain homogenate. […]
Reported endpoint: Kp

Here are 2 compounds together with their reported answers.
Mol	Kp
O=C(NO)c1ccc(NC(c2ccccc2)c2ccccc2)cn1	1 to 5
O=C(NO)c1ccc(NCc2ccccc2)cn1	1 to 3

Exercise: For "O=C(NO)c1ccc(N(c2ccccc2)c2ccccc2)cn1" , what is its reported Kp?
Solution: 2 to 6

---

UniProt O15379 IC50 data
Sequence (O15379 whole entry): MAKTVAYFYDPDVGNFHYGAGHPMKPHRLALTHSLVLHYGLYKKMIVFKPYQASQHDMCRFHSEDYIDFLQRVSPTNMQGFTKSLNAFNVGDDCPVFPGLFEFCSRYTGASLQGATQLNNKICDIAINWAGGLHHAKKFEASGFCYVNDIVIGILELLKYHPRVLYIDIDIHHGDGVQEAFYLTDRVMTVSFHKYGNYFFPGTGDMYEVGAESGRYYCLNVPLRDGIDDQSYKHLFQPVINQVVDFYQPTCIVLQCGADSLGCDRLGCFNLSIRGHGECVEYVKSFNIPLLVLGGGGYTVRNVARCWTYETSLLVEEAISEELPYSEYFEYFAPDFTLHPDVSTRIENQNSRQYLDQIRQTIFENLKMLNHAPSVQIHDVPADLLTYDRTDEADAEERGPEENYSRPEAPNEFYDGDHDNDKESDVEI
Sequence (Q9Y618 395-489 partner limits assumed): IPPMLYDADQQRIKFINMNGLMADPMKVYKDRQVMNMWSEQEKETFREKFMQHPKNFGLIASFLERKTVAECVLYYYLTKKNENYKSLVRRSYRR

Here are 3 compounds together with their reported answers.
Mol	Target system	IC50
O=C(NO)c1ccc(NCc2cc(F)ccc2F)cc1	UniProt O15379	700 to 800 nM
O=C(NO)c1ccc(NC2(c3ccccc3)CCCCC2)cc1	UniProt O15379	6000 to 7000 nM
O=C(NO)c1ccc(NC2(c3ccccc3)CC2)cc1	UniProt O15379	400 to 500 nM

Exercise: For "O=C(NO)c1ccc(NCc2ccccc2)cc1" , what is its reported IC50?
Solution: 1200 to 1300 nM

---

target: HDAC2 (Homo sapiens)
Sequence (Q92769 whole entry): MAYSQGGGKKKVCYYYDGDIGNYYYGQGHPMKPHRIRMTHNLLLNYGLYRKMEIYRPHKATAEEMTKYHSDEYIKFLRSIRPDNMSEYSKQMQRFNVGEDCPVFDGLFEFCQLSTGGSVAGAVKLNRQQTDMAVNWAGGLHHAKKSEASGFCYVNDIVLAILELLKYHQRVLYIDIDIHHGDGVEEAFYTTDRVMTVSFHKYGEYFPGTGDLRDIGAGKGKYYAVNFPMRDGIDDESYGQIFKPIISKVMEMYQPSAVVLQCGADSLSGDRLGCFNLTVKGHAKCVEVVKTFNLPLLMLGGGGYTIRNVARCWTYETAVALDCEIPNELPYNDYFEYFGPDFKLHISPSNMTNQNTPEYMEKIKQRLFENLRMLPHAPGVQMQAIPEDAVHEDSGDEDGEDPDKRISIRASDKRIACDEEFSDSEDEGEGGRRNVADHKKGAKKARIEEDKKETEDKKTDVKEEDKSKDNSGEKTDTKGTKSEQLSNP
pIC50: −log10 of the molar value.
A collection of compounds and their measured pIC50

Here are 2 compounds together with their reported answers.
Compound	pIC50
O=C(NO)c1ccc(NC2(c3ccccc3)CCCCC2)cc1 [Compound 010]	5.70 to 5.82
O=C(NO)c1ccc(NC2(c3ccccc3)CC2)cc1 [Compound 009]	6.46 to 6.60

Exercise: For COc1ccc(Cl)cc1CNc1ccc(C(=O)NO)cc1 [Compound 001] , what is its reported pIC50?
Solution: 6.40 to 6.70

---

assay: Mouse pharmacokinetic studies; format: in vivo; details: mouse, ip; male C57BL/6 mice, intraperitoneal 5 mg/kg, plasma
Reported endpoint: AUC

Here are 2 molecules together with their reported answers.
Mol	Observed
O=C(NO)c1ccc(NC(c2ccccc2)c2ccccc2)cn1	200 to 250 ng·h/mL
O=C(NO)c1ccc(N(c2ccccc2)c2ccccc2)cn1	150 to 250 ng·h/mL

Read the next record carefully.
Exercise: For "O=C(NO)c1ccc(NCc2ccccc2)cn1" , what is its reported AUC?
Solution: 75 to 125 ng·h/mL

---

Target: HDAC6 (Homo sapiens, UniProt Q9UBN7)
Sequence (Q9UBN7 1-1215): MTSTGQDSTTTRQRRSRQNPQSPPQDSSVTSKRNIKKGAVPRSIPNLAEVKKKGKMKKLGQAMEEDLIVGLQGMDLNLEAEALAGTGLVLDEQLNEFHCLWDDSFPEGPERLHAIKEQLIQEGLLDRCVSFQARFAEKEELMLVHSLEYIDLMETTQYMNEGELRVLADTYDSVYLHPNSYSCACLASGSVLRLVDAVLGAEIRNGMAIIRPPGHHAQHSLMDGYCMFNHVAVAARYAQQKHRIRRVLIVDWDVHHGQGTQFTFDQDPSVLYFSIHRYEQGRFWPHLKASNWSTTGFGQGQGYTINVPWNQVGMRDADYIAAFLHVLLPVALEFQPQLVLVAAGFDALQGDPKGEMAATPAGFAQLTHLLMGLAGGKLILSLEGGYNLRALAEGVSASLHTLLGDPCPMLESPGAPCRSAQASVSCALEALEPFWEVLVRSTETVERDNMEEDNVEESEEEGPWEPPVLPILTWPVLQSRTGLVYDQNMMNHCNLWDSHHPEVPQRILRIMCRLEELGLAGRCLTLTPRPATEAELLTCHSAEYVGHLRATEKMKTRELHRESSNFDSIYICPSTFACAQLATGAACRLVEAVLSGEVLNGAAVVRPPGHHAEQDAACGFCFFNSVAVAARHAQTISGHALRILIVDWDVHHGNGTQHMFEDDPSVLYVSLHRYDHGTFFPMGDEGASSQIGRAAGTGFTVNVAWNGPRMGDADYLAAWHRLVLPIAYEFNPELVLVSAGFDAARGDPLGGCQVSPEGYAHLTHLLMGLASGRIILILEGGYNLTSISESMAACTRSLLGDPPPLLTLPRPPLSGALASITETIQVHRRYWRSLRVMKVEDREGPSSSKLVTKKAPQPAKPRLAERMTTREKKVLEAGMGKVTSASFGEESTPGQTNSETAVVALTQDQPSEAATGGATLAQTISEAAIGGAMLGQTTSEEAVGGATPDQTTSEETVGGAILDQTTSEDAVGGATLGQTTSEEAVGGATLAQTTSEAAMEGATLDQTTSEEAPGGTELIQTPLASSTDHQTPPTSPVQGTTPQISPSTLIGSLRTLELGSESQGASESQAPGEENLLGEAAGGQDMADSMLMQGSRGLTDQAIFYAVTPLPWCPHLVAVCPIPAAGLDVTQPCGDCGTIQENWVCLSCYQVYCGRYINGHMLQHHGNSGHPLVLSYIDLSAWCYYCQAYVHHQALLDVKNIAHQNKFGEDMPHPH
pIC50: −log10 of the molar value.
Reported endpoint: pIC50

Exercise: For "O=C(NO)c1ccc(NCc2cc(F)ccc2F)cc1" , what is its reported pIC50?
Solution: 8.10 to 8.40

Exercise: For "O=C(NO)c1ccc(NCc2cc(Cl)ccc2Cl)cc1" , what is its reported pIC50?
Solution: 8.10 to 8.40

Exercise: For "COc1ccc(F)cc1CNc1ccc(C(=O)NO)cc1" , what is its reported pIC50?
Solution: 8.22 to 9.00

Exercise: For "O=C(NO)c1ccc(NC2(c3ccccc3)CCCCC2)cc1" , what is its reported pIC50?
Solution: 8.10 to 8.40

---

assay: Rat pharmacokinetic studies; assay type: in vivo; conditions: male SD rats, IV 1 mg/kg, plasma
Reported endpoint: clearance

Mol	clearance
O=C(NO)c1ccc(NC2(c3ccccc3)CC2)cc1	50 to 117 mL/min/kg

Read the next record carefully.
Exercise: For "O=C(NO)c1ccc(NCc2ccccc2)cc1" , what is its reported clearance?
Solution: 91.7 to 117 mL/min/kg

---

target: HDAC1 (Homo sapiens)
Sequence (Q13547 whole entry): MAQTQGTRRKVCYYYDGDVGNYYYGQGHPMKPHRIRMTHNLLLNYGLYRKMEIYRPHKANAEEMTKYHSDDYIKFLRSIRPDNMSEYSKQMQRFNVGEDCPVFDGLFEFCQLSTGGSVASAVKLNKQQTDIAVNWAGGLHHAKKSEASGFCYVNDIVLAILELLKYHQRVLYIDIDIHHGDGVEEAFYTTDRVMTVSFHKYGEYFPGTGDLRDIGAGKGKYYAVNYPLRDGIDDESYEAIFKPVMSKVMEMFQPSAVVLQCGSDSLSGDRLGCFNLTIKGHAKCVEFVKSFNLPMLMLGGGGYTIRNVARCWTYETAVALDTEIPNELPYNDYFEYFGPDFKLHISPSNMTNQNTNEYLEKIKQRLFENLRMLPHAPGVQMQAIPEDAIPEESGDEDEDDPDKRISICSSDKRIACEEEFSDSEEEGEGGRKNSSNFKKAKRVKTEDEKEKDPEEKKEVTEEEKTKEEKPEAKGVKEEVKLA
pIC50: −log10 of the molar value.
Reported endpoint: pIC50

Here are 3 compounds together with their reported answers.
Compound	Observed
O=C(NO)c1ccc(NC2(c3cc(F)ccc3F)CCOCC2)cc1 [Compound 008]	6.60 to 6.82
O=C(NO)c1ccc(NC2(c3ccccc3)CCCCC2)cc1 [Compound 010]	5.70 to 6.00
O=C(NO)c1ccc(NCc2ccccc2)cc1 [Compound 011]	6.10 to 6.15

Exercise: For COc1ccc(F)cc1CNc1ccc(C(=O)NO)cc1 [Compound 005] , what is its reported pIC50?
Solution: 6.10 to 6.30

---

experiment: Rat pharmacokinetic studies; type: in vivo; conditions: male SD rats, IV 1 mg/kg, plasma
Reported endpoint: clearance

Here are 3 compounds together with their reported answers.
Mol	Observed
O=C(NO)c1ccc(NC2(c3ccccc3)CCCCC2)cc1	33.3 to 66.7 mL/min/kg
COc1ccc(Cl)cc1CNc1ccc(C(=O)NO)cc1	16.7 to 83.3 mL/min/kg
COc1ccc(F)cc1CNc1ccc(C(=O)NO)cc1	167 to 333 mL/min/kg

Read the next record carefully.
Exercise: For "O=C(NO)c1ccc(NC2(c3cc(F)ccc3F)CCOCC2)cc1" , what is its reported clearance?
Solution: 83.3 to 167 mL/min/kg

Measured values drawn from patent US10370324B2 for this set.
